The values you see were collected from patent US20040002442A1.

Target: T1, glucagon receptor present in the plasma membranes isolated from rat liver (rat, UniProt P30082 27-485)
T1 construct: whole, on cells
T1 sequence (P30082 27-485): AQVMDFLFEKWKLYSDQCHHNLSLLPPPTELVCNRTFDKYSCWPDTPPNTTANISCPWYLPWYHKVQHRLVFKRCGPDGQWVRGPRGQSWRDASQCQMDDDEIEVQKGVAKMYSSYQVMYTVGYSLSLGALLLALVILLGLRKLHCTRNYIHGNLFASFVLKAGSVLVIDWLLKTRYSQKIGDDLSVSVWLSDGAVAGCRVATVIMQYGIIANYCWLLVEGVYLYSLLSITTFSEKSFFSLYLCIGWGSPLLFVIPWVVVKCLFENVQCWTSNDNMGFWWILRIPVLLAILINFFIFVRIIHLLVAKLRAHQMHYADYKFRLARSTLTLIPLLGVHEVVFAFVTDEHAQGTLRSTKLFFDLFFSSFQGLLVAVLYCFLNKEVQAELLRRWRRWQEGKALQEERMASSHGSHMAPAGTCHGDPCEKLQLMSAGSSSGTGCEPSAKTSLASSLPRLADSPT
Assay: 125I-glucagon displacement, rat liver plasma membranes
pIC50: −log10 of the molar value. Ends that are not written are not given here. * marks the point of attachment. Palmitoyl = CCCCCCCCCCCCCCCC(=O)*
readout_kind: pIC50

1: HSQGTFTSDYARYLDARRAREFIKWLVRGRG [G83]
2: HSQGTFTSDYARYLDARRAK(Palmitoyl)EFIKWLVRGRG (not fully specified; printed as HSQGTFTSDYARYLDARRAK(FA)EFIKWLVRGRG) [G183]
// max by pIC50 over [ 1 , 2 ] # answer = label of selected item 1
(1: 7.54, 2: 6.18)
